// provenance: ChEMBL document CHEMBL5291721

// B2 bradykinin receptor (Homo sapiens) AC50 records

compound: [H]/N=C(/N)N/C(=N/[H])NCCc1ccccc1
AC50: > 30 µM
//
compound: CCCCC1C(=O)N(c2ccccc2)N(c2ccccc2)C1=O
AC50: > 30 µM
//
compound: CC(C)NCC(O)c1ccc(O)c(O)c1 (stereo not given)
AC50: > 30 µM
//
compound: COc1ccccc1OCCNCC(O)COc1cccc2[nH]c3ccccc3c12 (stereo not given)
AC50: > 30 µM
//
compound: CC(C)(C)C(=O)OCC(=O)[C@H]1CC[C@H]2[C@@H]3CCC4=CC(=O)CC[C@]4(C)[C@H]3CC[C@]12C [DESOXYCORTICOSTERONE PIVALATE]
AC50: > 10 µM
//
compound: CC(=O)N[C@@H](CS)C(=O)O
AC50: > 30 µM
//
compound: CC1=C(C)C(=O)C(C(CCCCCC(=O)O)c2ccccc2)=C(C)C1=O (stereo not given)
AC50: > 30 µM
//
compound: CCCN(CCC)C(=O)Cc1c(-c2ccc(Cl)cc2)nc2ccc(Cl)cn12
AC50: > 30 µM
//
compound: C[C@]12CCC(=O)C(O)=C1CC[C@@H]1[C@@H]2CC[C@]2(C)C(=O)CC[C@@H]12
AC50: > 30 µM
//
compound: O=C1CN(/N=C/c2ccc(-c3ccc([N+](=O)[O-])cc3)o2)C(O)=N1
AC50: > 10 µM
//
compound: CN(C)CCc1c[nH]c2ccc(Cn3cncn3)cc12
AC50: > 30 µM
//
compound: O=C1CN=C(c2ccccc2)c2cc([N+](=O)[O-])ccc2N1
AC50: > 10 µM
//
compound: CO[C@H]1/C=C/O[C@@]2(C)Oc3c(C)c(O)c4c(O)c(c(/C=N/N5CCN(C)CC5)c(O)c4c3C2=O)NC(=O)/C(C)=C\C=C\[C@H](C)[C@H](O)[C@@H](C)[C@@H](O)[C@@H](C)[C@H](OC(C)=O)[C@@H]1C
AC50: 18.6 µM
//
compound: CCN(CC)CCN1C(=O)CN=C(c2ccccc2F)c2cc(Cl)ccc21
AC50: > 30 µM
//
compound: CCOC(=O)c1cncn1[C@H](C)c1ccccc1 [ETOMIDATE]
AC50: > 10 µM
//
compound: CCC(C)C1(CC)C(=O)NC(=O)NC1=O (stereo not given)
AC50: > 30 µM
//
compound: CCCCCC(=O)O[C@]1(C(C)=O)CC[C@H]2[C@@H]3CCC4=CC(=O)CC[C@]4(C)[C@H]3CC[C@@]21C [HYDROXYPROGESTERONE CAPROATE]
AC50: > 9.99 µM
//
compound: COc1ccc2nc3cc(Cl)ccc3c(Nc3cc(CN4CCCC4)c(O)c(CN4CCCC4)c3)c2n1
AC50: > 30 µM
//
compound: CCC[C@H](NC(=O)[C@@H]1[C@H]2CCC[C@H]2CN1C(=O)[C@@H](NC(=O)[C@@H](NC(=O)c1cnccn1)C1CCCCC1)C(C)(C)C)C(=O)C(=O)NC1CC1
AC50: > 30 µM
//
compound: CCOC(=O)C1=C[C@]2(CC)CCCN3CCc4c(n1c1ccccc41)[C@@H]32
AC50: > 30 µM
//
compound: Nc1cc(-c2ccncc2)c[nH]c1=O
AC50: > 30 µM
//
compound: COc1cc(N)c(Cl)cc1C(=O)NC1CCN(Cc2ccccc2)CC1 [CLEBOPRIDE]
AC50: > 30 µM
//
compound: CC(=O)SC[C@@H](C)C(=O)N1CCC[C@H]1C(=O)N[C@@H](Cc1ccccc1)C(=O)O
AC50: > 30 µM
//
compound: C#CCOc1ccc(N)cc1C(=O)NCCCC [PARSALMIDE]
AC50: > 30 µM
//
compound: CC(C)N(CCC(C(N)=O)(c1ccccc1)c1ccccn1)C(C)C (stereo not given) [DISOPYRAMIDE]
AC50: > 30 µM
